Source of measurements: patent US20240024520A1

- system.name: T1, human complement component C5 (human, UniProt P01031 19-673; P01031 678-1676)
- T1 construct: mature; Mature C5 is a disulphide-linked beta and alpha chain cut from one precursor; Terbium-labelled in the FRET assays, biotinylated in part of the phage ELISA; also called human C5; C5-Tb
- experiment.summary: SPR multi-cycle kinetics, human C5 immobilised, mean of n=3
Ends that are not written are not given here. * marks the point of attachment. Palmitoyl = CCCCCCCCCCCCCCCC(=O)*
Recorded koff values for a group of binders are listed next.
Note: unit s⁻¹ is implicit; provide only the numeric part.

Study these solved cases before continuing.
binder	koff / s⁻¹
Palmitoyl-GCPPGYKSGVDCSPGSECKWGCYAVDGRRYGGYGADSGVGS (also: disulphides formed by free energy method, pairing not given here) [K57chemFE-Palmitoyl]	0.000477
cyclo(VCPDGFNWGYGCAAGSSRFCTRHDWCCYDERADSHTYGFCTGNRV) (also: disulphides formed by free energy method, pairing not given here, Head-to-tail cyclised K8chemFE) [K8 chemFE cyclic]	0.00259

Turning to the following binder.
Entry GCPPGYKSGVDCSPGSECKWGCYAVDGRRYGGYGADSGVGS [K57chemFE knob domain peptide] ; koff = 0.000579
